molecular target: T1, PKC-βI (purified isoform) (Homo sapiens (Human), UniProt P05771 2-671); assay: competitive ELISA, coated purified PKC-βI, vs anti-PKC βI (SC-209); PRE 100 µM
T1 construct: also called PKC-beta I; PKC beta 1
T1 sequence (P05771 2-671 limits assumed): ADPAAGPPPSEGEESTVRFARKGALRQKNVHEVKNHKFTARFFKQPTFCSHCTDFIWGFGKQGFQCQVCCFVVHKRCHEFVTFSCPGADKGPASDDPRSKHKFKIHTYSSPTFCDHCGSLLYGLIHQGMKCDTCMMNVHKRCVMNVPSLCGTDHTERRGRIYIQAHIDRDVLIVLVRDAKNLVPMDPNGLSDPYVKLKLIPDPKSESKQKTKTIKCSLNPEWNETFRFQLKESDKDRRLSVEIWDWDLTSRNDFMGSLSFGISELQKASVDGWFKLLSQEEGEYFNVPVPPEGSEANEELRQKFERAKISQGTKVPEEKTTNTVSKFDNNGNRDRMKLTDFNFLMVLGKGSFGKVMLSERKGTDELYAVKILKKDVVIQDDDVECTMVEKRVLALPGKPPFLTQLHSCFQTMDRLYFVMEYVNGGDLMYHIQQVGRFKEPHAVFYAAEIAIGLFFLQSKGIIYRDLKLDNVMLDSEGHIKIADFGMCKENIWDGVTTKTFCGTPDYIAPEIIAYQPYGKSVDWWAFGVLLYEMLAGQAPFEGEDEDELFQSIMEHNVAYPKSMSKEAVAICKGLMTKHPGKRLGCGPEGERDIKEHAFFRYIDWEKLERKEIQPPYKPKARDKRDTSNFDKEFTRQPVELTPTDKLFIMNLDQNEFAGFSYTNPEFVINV
ENDPOINT: relative binding capacity (100-%n, DMSO subtracted) (%)
Report the value in % with no unit label.

>>> measured_number("Ac-RDAQNLI-NH2 (Ac-RDAQNLI-NH2; also called peptide PRE 13) [PRE 13]")
0
>>> measured_number("Ac-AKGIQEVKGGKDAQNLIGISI-NH2 (also called peptide PRE 5) [PRE 5]")
0
>>> measured_number("RRKKGGKDFVVKR (also called peptide PRE 1; peptide recognition element 1) [PRE 1]")
13.9
>>> measured_number("Ac-KDAQNLI-NH2 (Ac-KDAQNLI-NH2; also called peptide PRE 12) [PRE 12]")
0

Alright, here's another binder for you.
Input Ac-ISIGILNQADK-NH2 (also called peptide PRE 10) [PRE 10] , output reported relative binding capacity (100-%n, DMSO subtracted).
4.35

Measured values drawn from patent US20110039770A1 for this set.
